Assign pIC50 to each entry below.
Molecular target: IgE-Tb / soluble IgE receptor FcεRIα with a Y131A mutation (Homo sapiens, UniProt P01854, N146Q/N252Q)
Construct: fused on or other part: Terbium chelate (LanthaScreen amine-reactive) on IgE-Fc; Alexa Fluor 488 hydrazide on the oxidised glycans of sFcεRIα; Both are labels and no part of the key
Sequence (P01854 104-427 N146Q/N252Q): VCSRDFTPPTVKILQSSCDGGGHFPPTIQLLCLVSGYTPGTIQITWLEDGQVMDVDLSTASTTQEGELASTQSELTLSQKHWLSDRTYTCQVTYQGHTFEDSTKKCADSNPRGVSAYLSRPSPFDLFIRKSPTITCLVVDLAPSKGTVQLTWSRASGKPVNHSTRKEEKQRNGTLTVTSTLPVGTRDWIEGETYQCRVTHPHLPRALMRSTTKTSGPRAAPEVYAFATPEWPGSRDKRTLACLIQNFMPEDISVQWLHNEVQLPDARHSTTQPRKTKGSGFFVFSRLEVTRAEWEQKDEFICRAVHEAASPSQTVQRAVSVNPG
Sequence (P12319 26-201 Y156A partner): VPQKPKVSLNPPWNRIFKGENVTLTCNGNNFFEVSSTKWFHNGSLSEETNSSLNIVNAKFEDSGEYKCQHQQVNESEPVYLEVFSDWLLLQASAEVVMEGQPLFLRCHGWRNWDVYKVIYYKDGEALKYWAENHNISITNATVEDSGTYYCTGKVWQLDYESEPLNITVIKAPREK
Experiment: in vitro FRET assay: binding of IgE-Tb to receptor FcεRIα-Y131A-AF488 and its inhibition by compounds
Conditions: 5 nM IgE-Tb, 25 nM FcεRIα-Y131A-AF488, 2 hours at room temperature; read-out: FRET IC50 range
pIC50: −log10 of the molar value.

Worked examples follow.
• CC(C)(F)CNS(=O)(=O)c1c2c(cc3cnc(C4CC4)cc13)C[C@@H](Nc1cnc(C3(O)COC3)nc1)C2 = 7.30 to 8.00
• CC(C)(F)CNS(=O)(=O)c1c2c(cc3cnc(C4CC4)cc13)CC(c1cccnc1)C2 (stereo not shown) = 5.70 to 7.00
• CC(C)(F)CNS(=O)(=O)c1c2c(cc3cnc(C4CC4)cc13)CC(Nc1cncc3[nH]cnc13)C2 (stereo not shown) = 7.30 to 8.00
• CC(C)(F)CNS(=O)(=O)c1c2c(cc3cnc(C4CC4)cc13)CC(Nc1cncnc1NCC1CC1)C2 (stereo not shown) = 7.30 to 8.00
• CC(C)CNS(=O)(=O)c1c2c(c(N)c3cnc(C4CC4)cc13)CCC2 = 7.00 to 7.30
• Cn1cc(C(=O)C(=O)N[C@@H]2Cc3cc4cnc(C5CC5)cc4c(S(=O)(=O)NCC(C)(C)F)c3C2)cn1 = 5.70 to 7.00

Prompt: Quickly give me recorded pIC50 for Cn1nnc(-c2ccc(NC3Cc4cc5cnc(C6CC6)cc5c(S(=O)(=O)NCC5(F)COC5)c4C3)cn2)n1 (stereo not shown)
Completion: 7.30 to 8.00
